The measurements presented in this section are drawn from patent US20230382924A1.

# MEASURED_ON: CFTR (Homo sapiens, UniProt P13569)
# Sequence (P13569 with tags, fused parts or gaps DEL508-508): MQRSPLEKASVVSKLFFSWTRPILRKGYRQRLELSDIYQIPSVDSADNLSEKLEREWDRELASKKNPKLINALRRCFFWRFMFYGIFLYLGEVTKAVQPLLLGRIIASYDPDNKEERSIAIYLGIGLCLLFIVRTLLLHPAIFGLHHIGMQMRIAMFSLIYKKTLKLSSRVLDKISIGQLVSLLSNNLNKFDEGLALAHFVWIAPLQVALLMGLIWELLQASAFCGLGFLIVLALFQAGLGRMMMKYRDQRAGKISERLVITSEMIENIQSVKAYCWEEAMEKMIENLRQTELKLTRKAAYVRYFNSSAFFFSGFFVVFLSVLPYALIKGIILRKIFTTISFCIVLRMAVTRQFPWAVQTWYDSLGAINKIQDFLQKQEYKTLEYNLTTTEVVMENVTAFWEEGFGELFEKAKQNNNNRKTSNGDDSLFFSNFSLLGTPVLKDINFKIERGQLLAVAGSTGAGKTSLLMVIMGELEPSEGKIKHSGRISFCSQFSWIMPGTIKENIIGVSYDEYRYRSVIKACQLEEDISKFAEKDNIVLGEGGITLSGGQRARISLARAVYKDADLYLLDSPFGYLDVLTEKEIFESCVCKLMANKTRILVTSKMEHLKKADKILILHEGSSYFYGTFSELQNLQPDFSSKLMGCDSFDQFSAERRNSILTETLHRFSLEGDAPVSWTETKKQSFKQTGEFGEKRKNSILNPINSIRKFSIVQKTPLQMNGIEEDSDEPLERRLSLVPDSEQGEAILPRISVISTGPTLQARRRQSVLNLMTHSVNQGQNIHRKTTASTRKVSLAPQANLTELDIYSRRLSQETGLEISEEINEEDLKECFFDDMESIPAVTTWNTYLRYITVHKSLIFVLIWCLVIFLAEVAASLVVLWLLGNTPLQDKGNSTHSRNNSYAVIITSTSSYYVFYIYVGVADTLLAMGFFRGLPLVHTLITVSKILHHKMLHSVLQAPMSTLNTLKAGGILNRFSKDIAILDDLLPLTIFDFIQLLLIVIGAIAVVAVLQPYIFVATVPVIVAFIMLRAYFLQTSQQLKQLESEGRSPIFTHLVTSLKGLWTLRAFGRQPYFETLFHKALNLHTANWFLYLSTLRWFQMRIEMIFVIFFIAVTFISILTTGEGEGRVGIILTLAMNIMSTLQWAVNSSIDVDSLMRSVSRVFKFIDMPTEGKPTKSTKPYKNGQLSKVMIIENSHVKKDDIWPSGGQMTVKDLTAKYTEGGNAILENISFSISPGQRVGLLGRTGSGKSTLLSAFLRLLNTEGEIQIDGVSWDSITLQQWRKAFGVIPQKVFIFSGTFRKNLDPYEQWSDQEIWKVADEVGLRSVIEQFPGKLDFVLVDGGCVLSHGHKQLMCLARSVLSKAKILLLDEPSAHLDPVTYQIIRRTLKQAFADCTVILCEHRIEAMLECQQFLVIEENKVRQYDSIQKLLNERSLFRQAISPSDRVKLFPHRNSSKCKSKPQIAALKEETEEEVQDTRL
# PROCEDURE_SUMMARY: Membrane Potential Dye, Enteroid Assay A
# Type: cell-based
# CONDITION_SUMMARY: Enteroid Assay A; read-out: Ent. A EC50
ASSAY_METRIC: EC50

Study these solved cases before continuing.
| COMPOUND | ASSAY_RESULT |
| --- | --- |
| Cc1cccc(C)c1-c1cc2nc(n1)NS(=O)(=O)c1cccc(c1)C(=O)NC[C@@H](c1ccccc1)O2 | < 1000 nM |
| CC[C@@H]1COc2cc(-c3c(C)cccc3C)nc(n2)NS(=O)(=O)c2cccc(c2)C(=O)N1 | 3000 to 30000 nM |
| Cc1cccc(C)c1-c1cc2nc(n1)NS(=O)(=O)c1cccc(c1)C(=O)NC1c3ccccc3CC1O2 (stereo not shown) | < 1000 nM |

Let's switch to this compound now.
Record `Cc1cccc(C)c1-c1cc2nc(n1)NS(=O)(=O)c1cccc(c1)C(=O)NCC1(CCN(Cc3cccc(OC(F)(F)F)c3F)CC1)CO2` . Reported EC50: < 1000 nM
